The measurements presented in this section are drawn from patent US9850283B2.

assayed system: LK35.2-hPD-L1 cells / PE-labeled PD-1-Ig (Homo sapiens)
Construct: expressed in transfected cells; host or cells: LK35.2 mouse B cell line
measurement description: LK35.2-hPD-L1 cell binding high-content screening assay
Format: cell-based
experimental setup: cell line of CBA not given (LK35.2-hPD-L1 or 293T-hPD-L1); read-out: CBA IC50 value
Positions of bridges follow the written chain, without caps; N, C: chain ends. Non-standard residues stand in square brackets, D forms with d. Residues, ends and D or L forms follow the SMILES beside them. ξ: configuration not given here. Phe(2-Cl) = N[C@@H](Cc1ccccc1Cl)C(=O)O; NMeF = CN[C@@H](Cc1ccccc1)C(=O)O; dNMeNle = CCCC[C@@H](NC)C(=O)O; NMeNle = CCCC[C@H](NC)C(=O)O; Dab = NCC[C@H](N)C(=O)O; ξP = O=C(O)C1CCCN1; Sar = CNCC(=O)O
readout type: pIC50
Give bare numbers, as −log10 of the molar value.

compound	pIC50
CCCC[C@H]1C(=O)N(C)CC(=O)N[C@@H](CC(=O)O)C(=O)N[C@@H](C(C)C)C(=O)N[C@@H](Cc2ccccc2Cl)C(=O)N[C@@H](Cc2ccc(O)cc2)C(=O)N(C)CC(=O)N[C@@H](Cc2c[nH]c3ccccc23)C(=O)N[C@@H](Cc2ccc(O)cc2)C(=O)N[C@@H](CC(C)C)C(=O)N[C@H](C(=O)NCC(N)=O)CSCC(=O)N[C@@H](Cc2ccccc2)C(=O)N(C)[C@@H](Cc2ccccc2)C(=O)N1C [Example 3132] ({CH2CO}-F[NMeF][NMeNle][Sar]DV[Phe(2-Cl)]Y[Sar]WYLCG-NH2; thioether N-13)	5.42
CCCC[C@H]1C(=O)N(C)[C@@H](CCCC)C(=O)N[C@@H](CCCN)C(=O)N[C@H](C(=O)NCC(N)=O)CSCC(=O)N[C@@H](Cc2ccc(O)cc2)C(=O)N2C[C@H](N)C[C@H]2C(=O)N[C@@H](CC(N)=O)C(=O)N2CCC[C@H]2C(=O)N[C@@H](Cc2cnc[nH]2)C(=O)N[C@@H](CC(C)C)C(=O)N2C[C@H](O)C[C@H]2C(=O)N[C@@H](Cc2c[nH]c3ccccc23)C(=O)N[C@@H](CO)C(=O)N[C@@H](Cc2c[nH]c3ccccc23)C(=O)N1C [Example 1192]	7.67
CCCC[C@H]1C(=O)N(C)[C@@H](CCCC)C(=O)N[C@@H](CCCNC(=N)N)C(=O)NC(C(=O)NCC(N)=O)CSCC(=O)N[C@@H](Cc2ccccc2)C(=O)N(C)[C@@H](C)C(=O)N[C@@H](CC(N)=O)C(=O)N2CCC[C@H]2C(=O)N[C@@H](Cc2cnc[nH]2)C(=O)N[C@@H](CC(C)C)C(=O)N[C@@H](CCNC(=O)C2CCCCC2)C(=O)N[C@@H](Cc2c[nH]c3ccccc23)C(=O)N[C@@H](CO)C(=O)N[C@@H](Cc2c[nH]c3ccccc23)C(=O)N1C (stereo partly shown) [Example 1021]	6.58

Below: the item to evaluate.
Documented pIC50 of CCCC[C@@H]1C(=O)N(C)[C@H](CCCC)C(=O)N[C@@H](C)C(=O)N[C@@H](C(=O)NCC(N)=O)CSCC(=O)N[C@@H](Cc2ccc(O)cc2)C(=O)N2CCCC2C(=O)N[C@H](CC(=O)O)C(=O)N2CCC[C@H]2C(=O)N[C@H](Cc2c[nH]cn2)C(=O)N[C@@H](CCC(=O)O)C(=O)N2CCCC2C(=O)N[C@H](Cc2c[nH]c3ccccc23)C(=O)N[C@@H](CCN)C(=O)N[C@@H](Cc2c[nH]c3ccccc23)C(=O)N1C (stereo partly shown) [Example 1215] ({CH2CO}-Y[ξP][dD]P[dH]E[ξP][dW][Dab]W[dNMeNle][dNMeNle]A[dC]G-NH2; thioether N-14) : 7.03

* * *

assayed system: Human PD-L1/PD-1 (Homo sapiens, UniProt Q9NZQ7)
Construct: made in house; host or cells: HEK293T
Sequence (Q9NZQ7 with tags, fused parts or gaps): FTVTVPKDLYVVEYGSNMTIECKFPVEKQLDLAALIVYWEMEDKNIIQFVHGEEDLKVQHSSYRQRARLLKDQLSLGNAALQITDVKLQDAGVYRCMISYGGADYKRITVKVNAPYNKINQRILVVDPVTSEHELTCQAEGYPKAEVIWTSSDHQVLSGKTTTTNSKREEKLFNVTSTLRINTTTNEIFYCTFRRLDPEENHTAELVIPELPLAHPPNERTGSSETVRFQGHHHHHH
measurement description: HTRF PD-1-Ig/PD-L1-His binding assay (human PD-L1)
experimental setup: cluster symbol; read-out: HTRF IC50 cluster
pIC50: −log10 of the molar value. Positions of bridges follow the written chain, without caps; N, C: chain ends. Non-standard residues stand in square brackets, D forms with d. Residues, ends and D or L forms follow the SMILES beside them. Bta = N[C@@H](Cc1csc2ccccc12)C(=O)O; NMeF = CN[C@@H](Cc1ccccc1)C(=O)O; NMeNle = CCCC[C@H](NC)C(=O)O; Sar = CNCC(=O)O
readout type: pIC50

GET /value?item= CCCC[C@H]1C(=O)N(C)CC(=O)N[C@@H](CC(=O)O)C(=O)N[C@@H](C(C)C)C(=O)N(C)[C@@H](Cc2ccccc2)C(=O)N[C@@H](Cc2ccc(O)cc2)C(=O)N(C)CC(=O)N[C@@H](Cc2csc3ccccc23)C(=O)N[C@@H](Cc2ccc(O)cc2)C(=O)N[C@@H](CCC(=O)O)C(=O)N[C@H](C(=O)NCC(N)=O)CSCC(=O)N[C@@H](Cc2ccccc2)C(=O)N(C)[C@@H](Cc2ccccc2)C(=O)N1C [Example 3074] ({CH2CO}-F[NMeF][NMeNle][Sar]DV[NMeF]Y[Sar][Bta]YECG-NH2; thioether N-13) &field=pIC50 returns 7.52 to 8.17

* * *

assayed system: Human PD-L1/PD-1 (Homo sapiens, UniProt Q9NZQ7)
Construct: made in house; host or cells: HEK293T
measurement description: HTRF PD-1-Ig/PD-L1-His binding assay (human PD-L1)
experimental setup: cluster symbol; read-out: HTRF IC50 cluster
Positions of bridges follow the written chain, without caps; N, C: chain ends. Non-standard residues stand in square brackets, D forms with d. Residues, ends and D or L forms follow the SMILES beside them. Phe(F5) = N[C@@H](Cc1c(F)c(F)c(F)c(F)c1F)C(=O)O; Hyp = O=C(O)[C@@H]1C[C@@H](O)CN1; NMeF = CN[C@@H](Cc1ccccc1)C(=O)O; NMeNle = CCCC[C@H](NC)C(=O)O; NMeA = CN[C@@H](C)C(=O)O; Orn = NCCC[C@H](N)C(=O)O; Sar = CNCC(=O)O
readout type: IC50

molecule	recorded value
CCCC[C@H]1C(=O)N(C)CC(=O)N[C@@H](CC(=O)O)C(=O)N[C@@H](C(C)C)C(=O)N(C)[C@@H](Cc2ccccc2)C(=O)N[C@@H](Cc2c(F)c(F)c(F)c(F)c2F)C(=O)N(C)CC(=O)N[C@@H](Cc2c[nH]c3ccccc23)C(=O)N[C@@H](Cc2ccc(O)cc2)C(=O)N[C@@H](CC(C)C)C(=O)N[C@H](C(=O)NCC(N)=O)CSCC(=O)N[C@@H](Cc2ccccc2)C(=O)N(C)[C@@H](Cc2ccccc2)C(=O)N1C [Example 3079] ({CH2CO}-F[NMeF][NMeNle][Sar]DV[NMeF][Phe(F5)][Sar]WYLCG-NH2; thioether N-13)	> 30.5 nM

Field: next molecule
response.value for CCCC[C@H]1C(=O)N(C)[C@@H](CCCC)C(=O)N[C@@H](C)C(=O)N[C@H](C(=O)NCC(N)=O)CSCC(=O)N[C@@H](Cc2ccc(O)cc2)C(=O)N(C)[C@@H](C)C(=O)N[C@@H](CCC(=O)O)C(=O)N2CCC[C@H]2C(=O)N[C@@H](Cc2cnc[nH]2)C(=O)N[C@@H](CCCN)C(=O)N2C[C@H](O)C[C@H]2C(=O)N[C@@H](Cc2c[nH]c3ccccc23)C(=O)N[C@@H](CO)C(=O)N[C@@H](Cc2c[nH]c3ccccc23)C(=O)N1C [Example 1178] ({CH2CO}-Y[NMeA]EPH[Orn][Hyp]WSW[NMeNle][NMeNle]ACG-NH2; thioether N-14) (field: IC50) = 0.385 to 6.74 nM

* * *

Record form. Attribute: pIC50. Fill in for each entry.
assayed system: LK35.2-hPD-L1 cells / PE-labeled PD-1-Ig (Homo sapiens, UniProt Q9NZQ7)
Construct: expressed in transfected cells; host or cells: LK35.2 mouse B cell line
Sequence (Q9NZQ7 19-290): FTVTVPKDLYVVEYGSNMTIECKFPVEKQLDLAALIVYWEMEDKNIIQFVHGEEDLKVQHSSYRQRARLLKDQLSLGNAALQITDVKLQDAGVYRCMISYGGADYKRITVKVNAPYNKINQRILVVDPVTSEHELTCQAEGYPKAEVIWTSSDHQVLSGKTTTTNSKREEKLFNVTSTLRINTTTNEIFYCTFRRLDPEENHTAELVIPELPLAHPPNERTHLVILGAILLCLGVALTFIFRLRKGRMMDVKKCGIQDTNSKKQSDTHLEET
measurement description: LK35.2-hPD-L1 cell binding high-content screening assay
Type: cell-based
experimental setup: cell binding assay, cell line not given; cluster symbol; read-out: CBA IC50 cluster
pIC50: −log10 of the molar value. Positions of bridges follow the written chain, without caps; N, C: chain ends. Non-standard residues stand in square brackets, D forms with d. Residues, ends and D or L forms follow the SMILES beside them. ξ: configuration not given here. NMeNle = CCCC[C@H](NC)C(=O)O; NMeM = CN[C@@H](CCSC)C(=O)O; NMeA = CN[C@@H](C)C(=O)O; Dap = NC[C@H](N)C(=O)O; ξC = NC(CS)C(=O)O

Give pIC50 for each listed item.
1. CCCC[C@H]1C(=O)N(C)[C@@H](CCCC)C(=O)N[C@@H](CCCNC(=N)N)C(=O)N[C@H](C(=O)NCC(N)=O)C/C=C/C(=O)N[C@@H](Cc2ccc(O)cc2)C(=O)N(C)[C@@H](C)C(=O)N[C@@H](CC(N)=O)C(=O)N2CCCC2C(=O)N[C@@H](Cc2cnc[nH]2)C(=O)N[C@@H](CC(C)C)C(=O)N2CCC[C@H]2C(=O)N[C@@H](Cc2c[nH]c3ccccc23)C(=O)N[C@@H](CO)C(=O)N[C@@H](Cc2c[nH]c3ccccc23)C(=O)N1C (some centres unmarked)
2. CCCC[C@H]1C(=O)N(C)[C@@H](CCSC)C(=O)N[C@@H](C)C(=O)NC(C(=O)NCC(N)=O)CSCC(=O)N[C@@H](Cc2ccc(O)cc2)C(=O)N(C)[C@@H](C)C(=O)N[C@@H](CC(N)=O)C(=O)N2CCC[C@H]2C(=O)N[C@@H](CN)C(=O)N[C@@H](CC(C)C)C(=O)N2CCC[C@H]2C(=O)N[C@@H](Cc2c[nH]c3ccccc23)C(=O)N[C@@H](CO)C(=O)N[C@@H](Cc2c[nH]c3ccccc23)C(=O)N1C (some centres unmarked) [Example 9085] ({CH2CO}-Y[NMeA]NP[Dap]LPWSW[NMeNle][NMeM]A[ξC]G-NH2; thioether N-14)

Given back:
< 7.13
7.14 to 8.32
